Target desc: T1, TNFR1 (Homo sapiens, UniProt P19438)
T1 chain: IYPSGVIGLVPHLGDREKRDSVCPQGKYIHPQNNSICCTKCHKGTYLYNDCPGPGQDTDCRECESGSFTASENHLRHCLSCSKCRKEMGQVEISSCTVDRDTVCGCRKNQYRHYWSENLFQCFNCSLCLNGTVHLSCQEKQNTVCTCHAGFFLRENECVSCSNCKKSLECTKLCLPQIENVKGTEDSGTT
Procedure text: yeast display SC50
Quantity measured: apparent Kd (screen) (nM)

P. K35C (designed binder) MTLQELLREEALRRAEAEAFRYALELLAEKFPEQCEYLLDLAEEIESQIRSLSGVDVEDVRKFLDKEWAWVKELLAEHPAELAEVEAARAARLAELRAEVEAKVAA
Q. R50P (designed binder) MTLQELLREEALRRAEAEAFRYALELLAEKFPEQKEYLLDLAEEIESQIPSLSGVDVEDVRKFLDKEWAWVKELLAEHPAELAEVEAARAARLAELRAEVEAKVAA
Please state the entry with greater apparent Kd (screen) among P and Q . Kindly give the label for the entry you pick.
Q
